Target: T1, flag-tagged soluble TL3 (amino acids 105-251 of SEQ ID NO:234) (Homo sapiens (Human), UniProt O75888 105-250)
T1 construct: Heterologous flag-tagged control protein, immobilized in the ELISA; also called flagged tagged TL-3; not shown: Flag tag
T1 sequence: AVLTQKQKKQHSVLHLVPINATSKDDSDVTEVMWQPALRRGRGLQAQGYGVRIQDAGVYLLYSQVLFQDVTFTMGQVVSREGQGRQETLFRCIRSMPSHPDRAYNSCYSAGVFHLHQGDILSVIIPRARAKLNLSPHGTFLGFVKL
Assay: phage ELISA on immobilized flag-tagged soluble TL3
Method: The individual phage isolates in the panel of phage, each phage expressing a unique scFv that bound to flag-tagged GMAD, were tested to ensure specificity for GMAD using an ELISA assay. […]
result_type: binding result

INSERT INTO results (binder, value_observed) VALUES
  ('GMBC670 (scFv) scFv: EVQLVETGGGLVKPGGSLRLSCVASGFTFSDAWMNWVRQAPGKGLEWVGRIKSKGSGGTIDYAAPVKDRFIISRDDSKNTLYLQVNSLKTEDTALYYCTWDWDFYYGMNVWGQGTLVTVSSGGGGSGGGGSGGGGSQSVLTQPASVSGSPGQSITISCTGTSSDVGGYNYVSWYQQHPGKAPKLMIYEGSKRPSGVSNRFSGSKSGNTASLTISGLQAEDEADYYCSSYTTRSTRVFGGGTKLTVLG', 'no binding'),
  ('GMBC603 (scFv) scFv: QVQLVQSGGGVVRPGGSLRLSCAASGFTFDDYGMSWVRQAPGKGLEWVSGINWNGGSTGYADSVKGRFTISRDNAKNSLYLQMNSLRAEDTALYYCAKDLNYDFWSGSGMDVWGRGTLVTVSSGGGGSGGGGSGGGGSQSVLTQPASVSGSPGQSITISCTGTSSDVGGYNYVSWYQQHPGKAPKLMIYEGSKRPSGVSNRFSGSKSGNTASLTISGLQAEDEADYYCSSYTTRSTRVFGGGTKLTVLG', 'no binding'),
  ('GMBC641 (scFv) scFv: EVQLVESGGGVVRPGRSLRLSCAASGFSFSSYGMHWVRQAPGKGLEWVSAISGSGGSTYYADSVKGRFTISRDNSKNTLYLQMNSLRAEDTAVYFCAKGGDRSFRAFDFWGQGTMVTVSSGGGGSGGGGSGGGGSSELTQDPAVSVALGQTVRITCQGDSLRSYYASWYQQKPGQAPVLVIYGKNNRPSGIPDRFSGSSSGNTASLTITGAQAEDEADYYCNSRDSSGNHVVFGGGTKLTVLG', 'no binding');
